- TARGET_OF_ASSAY: T1, CHIP (C-terminus of Hsc70 Interacting Protein), full-length human (human, UniProt Q9UNE7 1-303)
- T1 sequence (looked up): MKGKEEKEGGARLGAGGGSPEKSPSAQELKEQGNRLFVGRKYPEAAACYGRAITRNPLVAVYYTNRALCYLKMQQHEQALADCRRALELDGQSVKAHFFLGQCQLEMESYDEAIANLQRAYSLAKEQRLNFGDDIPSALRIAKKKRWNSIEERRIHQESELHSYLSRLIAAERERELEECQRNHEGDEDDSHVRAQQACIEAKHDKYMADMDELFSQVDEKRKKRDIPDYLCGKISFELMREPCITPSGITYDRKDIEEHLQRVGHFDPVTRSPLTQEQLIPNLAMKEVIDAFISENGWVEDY
- EXPERIMENT_SUMMARY: fluorescence polarisation
Primed or numbered codes have the meaning given here. No end group written: not given here. 5FAM′ = 5-carboxyfluorescein
PROPERTY_NAME: pKd
One number for each entry, as −log10 of the molar value.

Quick one: pKd for {5FAM′}-MEEVD [5FAM-MEEVD] ?
5.82
